- MEASURED TARGET: Peroxisome proliferator-activated receptor gamma (Homo sapiens, UniProt P37231)
- Sequence (P37231 whole entry, the tested form may be a part): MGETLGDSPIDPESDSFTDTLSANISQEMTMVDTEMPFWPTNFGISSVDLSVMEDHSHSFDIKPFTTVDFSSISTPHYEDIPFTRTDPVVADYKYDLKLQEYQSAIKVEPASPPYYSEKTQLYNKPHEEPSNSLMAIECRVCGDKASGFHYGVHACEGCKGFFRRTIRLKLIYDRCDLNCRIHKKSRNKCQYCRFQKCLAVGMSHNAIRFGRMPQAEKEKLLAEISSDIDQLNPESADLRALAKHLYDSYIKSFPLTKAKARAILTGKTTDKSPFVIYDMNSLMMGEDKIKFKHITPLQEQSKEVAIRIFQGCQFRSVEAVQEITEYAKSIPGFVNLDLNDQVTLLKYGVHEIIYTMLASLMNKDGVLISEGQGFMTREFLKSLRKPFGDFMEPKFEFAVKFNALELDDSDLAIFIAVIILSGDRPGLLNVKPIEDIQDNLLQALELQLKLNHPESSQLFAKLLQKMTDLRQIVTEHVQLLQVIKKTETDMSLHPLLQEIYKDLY
- ASSAY: Modulation of human PPARgamma-LBD expressed in african green monkey COS7 cells co-transfected with Gal4 assessed as activation of transactivation activity by luciferase assay
hey, just use rule met if measured EC50 is less than 5 µM, otherwise rule not met

COMPOUND	CLASS LABEL
CCCCC(Oc1cc(OCCc2ccccc2)cc(OCCc2ccccc2)c1)C(=O)O (configuration not stated)	rule met
CCCC/C(=C\c1cc(OCCc2ccc(C(F)(F)F)cc2)ccc1OCCc1ccc(C(F)(F)F)cc1)C(=O)O	rule not met
CCCCC(Cc1ccc(OCCC2CCCCC2)c(OCCc2ccccc2)c1)C(=O)O (configuration not stated)	rule met
CCCCC(Cc1cc(OCCc2ccccc2)cc(OCCc2ccccc2)c1)C(=O)O (configuration not stated)	rule met
CCCCC(Cc1ccc(OCCc2ccccc2)c(OCCC2CCCCC2)c1)C(=O)O (configuration not stated)	rule met

Request: Would you kindly verify if EC50 of CCCCC(Sc1cc(OCCc2ccccc2)cc(OCCc2ccccc2)c1)C(=O)O (configuration not stated) is strictly less than 5 µM?
Result: rule met

Request: Also need CCCC/C(=C\c1cc(OCCc2ccccc2)cc(OCCc2ccccc2)c1)C(=O)O , thanks.
Result: rule not met
